# Tested on: yellow fever virus
# method_notes: in vitro
# reported_conditions: human
attribute_measured: selectivity ratio

molecule: Cc1c(-c2ccc(-c3ccccc3F)cc2)nc2ccc(F)cc2c1C(=O)[O-].[Na+] [Brequinar, sodium salt]
attribute_measured: selectivity ratio
measured_value: 60

IN: Please respond with reported selectivity ratio (system yellow fever virus) for `NC(=O)c1ncn([C@@H]2O[C@H](CO)[C@@H](O)[C@H]2O)n1` .
OUT: 70

====

# Test system: vesicular stomatitis virus
# method_notes: in vitro
# reported_conditions: human
attribute_measured: selectivity ratio
Answers are plain numbers.

IN: Provide selectivity ratio, system vesicular stomatitis virus, entry Cc1c(-c2ccc(-c3ccccc3F)cc2)nc2ccc(F)cc2c1C(=O)[O-].[Na+] [Brequinar, sodium salt]
OUT: 2100

====

Kindly state EC50 for each of the entries shown.
# Test system: yellow fever virus
# method_notes: microbe, parasite or virus in culture
# reported_conditions: Huh-7, read-out: ED50 YFV HuH7
Give bare numbers, in µM.

Solved entries (count: 3):
compound: O=C(O)c1cc(-c2ccc(C3CCCCC3)cc2)nc2ccc(OC(F)(F)F)cc12
EC50 / µM: 5.1

compound: O=C(O)c1cc(-c2ccc(Oc3ccccc3)cc2)nc2ccc(OC(F)(F)F)cc12
EC50 / µM: 11.3

compound: Cc1c(-c2ccc(-c3ccccc3)cc2)nc2ccc(OC(F)(F)F)cc2c1C(=O)O
EC50 / µM: 6.1

I would be grateful if you could provide EC50 for each of the following entries.
1. O=C(O)c1cc(-c2ccc(-c3ccccc3)cc2)nc2ccc(OC(F)(F)F)cc12
2. Cc1c(-c2ccc(-c3ccccc3F)cc2)nc2ccc(F)cc2c1C(=O)[O-].[Na+] [Brequinar, sodium salt]

OUT:
1: 1.7; 2: 0.03

====

Kindly supply the reported selectivity ratio values for the records listed here.
# System: yellow fever virus
# method_notes: in vitro
# reported_conditions: monkey
Give bare numbers.

compound: Cc1c(-c2ccc(-c3ccccc3F)cc2)nc2ccc(F)cc2c1C(=O)[O-].[Na+] [Brequinar, sodium salt]
system_tested: yellow fever virus
attribute_measured: selectivity ratio
measured_value: 2670

Next compound, please.
IN: Given the compound `NC(=O)c1ncn([C@@H]2O[C@H](CO)[C@@H](O)[C@H]2O)n1` , write its reported selectivity ratio.
OUT: 36
